# System: Tetranychus cinnabarinus
# Assay procedure: Pesticidal activity against Tetranychus cinnabarinus (carmine spider mite) third- instar larvae grown on Phaseolus vulgaris leaves assessed as pest mortality at 400 mg/L measured 48 hr post compound exposure
# Assay type: functional
Test readout: mortality at 400 µg/mL (%)
A number alone suffices; assume %.

See these solved cases before continuing.
- Cc1cc(Cl)cc(C(=O)NNCc2ccccc2Cl)c1NC(=O)C(C)(C)C: 97.8
- Cc1cc(Br)cc(C(=O)NNCc2ccccc2Cl)c1NC(=O)C(C)(C)CCl: 89.6

query: Can you share its mortality at 400 µg/mL? I mean this compound: CNC(=O)c1cc(Cl)cc(C)c1NC(=O)c1cc(Br)nn1-c1ncccc1Cl
result: 40.7

query: Again, but for Cc1cc(Cl)cc(C(=O)NNCc2ccccc2Cl)c1NC(=O)CC(C)(C)C
result: 92.2

query: Again, but for CC(C)(C)c1ccc(CSc2cnn(C(C)(C)C)c(=O)c2Cl)cc1
result: 100

query: Again, but for Cc1cc(Br)cc(C(=O)NNCc2cccc(C(F)(F)F)c2)c1NC(=O)CC(C)(C)C
result: 93.3

====

# Test system: Tetranychus cinnabarinus
# Assay procedure: Pesticidal activity against Tetranychus cinnabarinus (carmine spider mite) third- instar larvae grown on Phaseolus vulgaris leaves assessed as pest mortality at 600 mg/L measured 48 hr post compound exposure
# Type: functional
Test readout: mortality at 600 µg/mL (%)
A number alone suffices; assume %.

See these solved cases before continuing.
• Cc1cc(Br)cc(C(=O)NNCc2ccccc2)c1NC(=O)C(C)(C)CCl = 20.3
• Cc1cc(Cl)cc(C(=O)NNCc2ccc(Cl)cc2Cl)c1NC(=O)C(C)(C)CCl = 73.8
• Cc1cc(Br)cc(C(=O)NNCc2ccccc2)c1NC(=O)C(C)(C)C = 64.9
• Cc1cc(Cl)cc(C(=O)NNCc2ccccc2Cl)c1NC(=O)CC(C)(C)C = 100

Consider the record given below.
query: Can you share its mortality at 600 µg/mL? I mean this compound: Cc1cc(Cl)cc(C(=O)NNCc2ccc(Cl)nc2)c1NC(=O)C(C)(C)CCl
result: 47.1

====

# System: Tetranychus cinnabarinus
# Assay procedure: Pesticidal activity against Tetranychus cinnabarinus (carmine spider mite) third- instar larvae grown on Phaseolus vulgaris leaves assessed as pest mortality at 600 mg/L measured 48 hr post compound exposure
# Format: functional
mortality at 600 µg/mL values for the compounds below.
A number alone suffices; assume %.

See these solved cases before continuing.
- Cc1cc(Br)cc(C(=O)NNCc2cccc(C(F)(F)F)c2)c1NC(=O)C(C)(C)CCl: 72.7
- Cc1cccc(C(=O)NNCc2ccc(Cl)cc2Cl)c1NC(=O)C(C)(C)C: 52.9
- Cc1cc(Cl)cc(C(=O)NNCc2ccccc2F)c1NC(=O)C(C)(C)C: 80.5
- CC(C)(C)C(=O)Nc1ccc(Cl)cc1C(=O)NNCc1ccc(F)cc1: 73.8
- Cc1cc(Cl)cc(C(=O)NNCc2cccc(C(F)(F)F)c2)c1NC(=O)CC(C)(C)C: 77.2

query: Can you share its mortality at 600 µg/mL? I mean this compound: Cc1cc(Br)cc(C(=O)NNCc2cccc(C(F)(F)F)c2)c1NC(=O)CC(C)(C)C
result: 100

query: Again, but for Cc1cc(Cl)cc(C(=O)NNCc2ccccc2Cl)c1NC(=O)C(C)(C)CCl
result: 11

====

mortality at 600 µg/mL values for the compounds below.
# System: Aphis gossypii
# Assay procedure: Pesticidal activity against Aphis gossypii (cotton aphid) third-instar nymphae grown on tender Hibiscus syriacus leaves assessed as pest mortality at 600 mg/L measured 24 hr post compound exposure
# Type: functional
# Protocol conditions: in Hibiscus syriacus
A number alone suffices; assume %.

See these solved cases before continuing.
• Cc1cc(Br)cc(C(=O)NNCc2ccc(Cl)nc2)c1NC(=O)C(C)(C)C = 96.2
• Cc1cc(Br)cc(C(=O)NNCc2ccccc2Cl)c1NC(=O)C(C)(C)CCl = 8.5
• Cc1cc(Cl)cc(C(=O)NNCc2cccc(C(F)(F)F)c2)c1NC(=O)C(C)(C)CCl = 5.1
• Cc1cccc(C(=O)NNCc2cccc(C(F)(F)F)c2)c1NC(=O)C(C)(C)C = 75
• Cc1cccc(C(=O)NNCc2ccc(Cl)nc2)c1NC(=O)CC(C)(C)C = 65.5
• Cc1cc(Cl)cc(C(=O)NNCc2ccc(Cl)nc2)c1NC(=O)C(C)(C)CCl = 30.6
• Cc1cccc(C(=O)NNCc2ccccc2Cl)c1NC(=O)C(C)(C)C = 92.2
• Cc1cc(Cl)cc(C(=O)NNCc2cccc(C(F)(F)F)c2)c1NC(=O)C(C)(C)C = 68.3
• Cc1cc(Br)cc(C(=O)NNCc2cccc(C(F)(F)F)c2)c1NC(=O)C(C)(C)CCl = 78.6
• Cc1cc(Br)cc(C(=O)NNCc2ccccc2)c1NC(=O)C(C)(C)CCl = 84.6

query: Can you share its mortality at 600 µg/mL? I mean this compound: Cc1cc(Br)cc(C(=O)NNCc2ccccc2Cl)c1NC(=O)C(C)(C)C
result: 49.1

query: Again, but for Cc1cccc(C(=O)NNCc2cccc(C(F)(F)F)c2)c1NC(=O)CC(C)(C)C
result: 94.2

====

# Tested on: Tetranychus cinnabarinus
# Assay procedure: Pesticidal activity against Tetranychus cinnabarinus (carmine spider mite) third- instar larvae grown on Phaseolus vulgaris leaves assessed as pest mortality at 50 mg/L measured 48 hr post compound exposure
# Format: functional
Test readout: mortality at 50 µg/mL (%)
A number alone suffices; assume %.

query: Can you share its mortality at 50 µg/mL? I mean this compound: CC(C)(C)c1ccc(CSc2cnn(C(C)(C)C)c(=O)c2Cl)cc1
result: 100

query: Again, but for Cc1cc(Cl)cc(C(=O)NNCc2ccccc2Cl)c1NC(=O)C(C)(C)C
result: 62.5

query: Again, but for Cc1cc(Br)cc(C(=O)NNCc2cccc(C(F)(F)F)c2)c1NC(=O)CC(C)(C)C
result: 38.4

query: Again, but for Cc1cc(Br)cc(C(=O)NNCc2ccccc2Cl)c1NC(=O)C(C)(C)CCl
result: 44.9

query: Again, but for Cc1cc(Cl)cc(C(=O)NNCc2ccccc2Cl)c1NC(=O)CC(C)(C)C
result: 74.1

query: Again, but for CNC(=O)c1cc(Cl)cc(C)c1NC(=O)c1cc(Br)nn1-c1ncccc1Cl
result: 13.2

====

# Test system: Tetranychus cinnabarinus
# Assay procedure: Pesticidal activity against Tetranychus cinnabarinus (carmine spider mite) third- instar larvae grown on Phaseolus vulgaris leaves assessed as pest mortality at 600 mg/L measured 48 hr post compound exposure
# Assay type: functional
mortality at 600 µg/mL values for the compounds below.
A number alone suffices; assume %.

See these solved cases before continuing.
• Cc1cc(Br)cc(C(=O)NNCc2ccccc2Cl)c1NC(=O)C(C)(C)C = 40.1
• Cc1cc(Br)cc(C(=O)NNCc2ccc(Cl)nc2)c1NC(=O)C(C)(C)CCl = 55.8
• Cc1cc(Cl)cc(C(=O)NNCc2ccc(Cl)cc2Cl)c1NC(=O)C(C)(C)C = 69
• Cc1cc(Br)cc(C(=O)NNCc2ccccc2Cl)c1NC(=O)C(C)(C)CCl = 95.7
• Cc1cc(Br)cc(C(=O)NNCc2ccccc2Cl)c1NC(=O)CC(C)(C)C = 11.6

query: Give mortality at 600 µg/mL (Tetranychus cinnabarinus) of the following compound: Cc1cc(Cl)cc(C(=O)NNCc2cccc(C(F)(F)F)c2)c1NC(=O)C(C)(C)C
result: 8.6

query: Again, but for Cc1cc(Br)cc(C(=O)NNCc2ccc(Cl)nc2)c1NC(=O)C(C)(C)C
result: 19.3

query: Again, but for Cc1cccc(C(=O)NNCc2ccccc2)c1NC(=O)C(C)(C)C
result: 16.7

query: Again, but for Cc1cc(Br)cc(C(=O)NNCc2cccc(C(F)(F)F)c2)c1NC(=O)C(C)(C)C
result: 19.8

query: Again, but for Cc1cccc(C(=O)NNCc2ccccc2Cl)c1NC(=O)C(C)(C)C
result: 5.9

query: Again, but for Cc1cc(Br)cc(C(=O)NNCc2ccc(Cl)cc2Cl)c1NC(=O)C(C)(C)C
result: 77

query: Again, but for Cc1cccc(C(=O)NNCc2ccc(Cl)nc2)c1NC(=O)CC(C)(C)C
result: 19.3

query: Again, but for Cc1cccc(C(=O)NNCc2ccccc2)c1NC(=O)C(C)(C)CCl
result: 79.3

query: Again, but for CC(C)(C)CC(=O)Nc1ccc(Cl)cc1C(=O)NNCc1ccccc1F
result: 77.6

query: Again, but for CC(C)(C)C(=O)Nc1ccc(Cl)cc1C(=O)NNCc1cccc(C(F)(F)F)c1
result: 73.8

query: Again, but for Cc1cccc(C(=O)NNCc2cccc(C(F)(F)F)c2)c1NC(=O)C(C)(C)C
result: 46.8

query: Again, but for Cc1cc(Br)cc(C(=O)NNCc2ccc(Cl)nc2)c1NC(=O)CC(C)(C)C
result: 23.4
